Origin of measurements: PubChem BioAssay (NCATS)

- System: CP297
- assay.explanation: qHTS profiling for inhibitors of Plasmodium falciparum proliferation (AID 504749); also: nearly all actives have a fitted effect of over 60% in size
- condition.set: P. falciparum in erythrocytes, SYBR Green DNA, 72 h; series mostly up to 28.7 µM
Records with an inconclusive call do not appear. Calls of active or inactive are those of the source. Calls follow the shape of the dose curve; as a rule, active = well fitted inhibition curve with a large enough effect; inconclusive = small, poorly fitted or top-dose-only effect; inactive = flat fitted curve, though single readings scatter.
Respond only with the outcome that fits, drawn from active, inactive

Please review the following examples before continuing.
1) Nc1nc(/C(=C/CC(=O)O)C(=O)NC2C(=O)N3C(C(=O)O)=CCSC23)cs1 (centres undefined) : inactive
2) C=C1/C(=C\C=C2/CCC[C@]3(C)[C@@H]([C@H](C)/C=C/[C@@H](O)C4CC4)CC[C@@H]23)C[C@@H](O)C[C@@H]1O : inactive
3) CCCCCCCCCCCCCCCC(=O)OCC(COP(=O)(O)OCC[N+](C)(C)C)OC(=O)CCCCCCCCCCCCCCC (centres undefined) : inactive

GET /call?item= O=C(O)[C@H]1C[C@@H](CP(=O)(O)O)CCN1 returns the recorded outcome of this test.
inactive

GET /call?item= CCC[C@H]1C[C@H](C(=O)N[C@@H]([C@H]2O[C@@H](SC)[C@@H](O)[C@@H](O)[C@@H]2O)[C@H](C)Cl)N(C)C1 returns the recorded outcome of this test.
active

GET /call?item= O=c1ccn(C2OC(COP(=O)(O)OC3C(CO)OC(n4ccc(=O)[nH]c4=O)C3O)C(O)C2O)c(=O)[nH]1 (centres undefined) returns the recorded outcome of this test.
inactive

GET /call?item= COc1ccc(C(=O)/C(Br)=C/C(=O)O)cc1 returns the recorded outcome of this test.
inactive

GET /call?item= CN(C)CC/C=C1\c2ccccc2COc2ccc(CC(=O)O)cc21 returns the recorded outcome of this test.
inactive

GET /call?item= COc1cc(/C=C2\CCC/C(=C\c3ccc(O)c(OC)c3)C2=O)ccc1O returns the recorded outcome of this test.
active

###

- System: CP266
- assay.explanation: qHTS profiling for inhibitors of Plasmodium falciparum proliferation (AID 504749); also: nearly all actives have a fitted effect of over 60% in size
- condition.set: P. falciparum in erythrocytes, SYBR Green DNA, 72 h; series mostly up to 28.7 µM
Records with an inconclusive call do not appear. Calls of active or inactive are those of the source. Calls follow the shape of the dose curve; as a rule, active = well fitted inhibition curve with a large enough effect; inconclusive = small, poorly fitted or top-dose-only effect; inactive = flat fitted curve, though single readings scatter.
Respond only with the outcome that fits, drawn from True for active, False for inactive

Please review the following examples before continuing.
1) O=C1CC[C@H](C(=O)N[C@@H]2C[C@H]2c2ccccc2)N1 : False
2) CCCCC/C(C=O)=C/c1ccccc1 : False
3) O=C1C(I)=CC(=C(c2cc(I)c(O)c(I)c2)c2ccccc2C(=O)O)C=C1I : False

GET /call?item= OC[C@@H]1O[C@](CO)(O[C@H]2O[C@H](CO)[C@@H](O)[C@H](O)[C@H]2O)[C@H](O)[C@H]1O returns the recorded outcome of this test.
False

GET /call?item= CC(c1ncncc1F)[C@](O)(Cn1cncn1)c1ccc(F)cc1F (stereo partly drawn) returns the recorded outcome of this test.
False

GET /call?item= CC1=C[C@@H](O)CC(C)(C)[C@@H]1/C=C/C(C)=C/C=C/C(C)=C/C=C/C=C(C)/C=C/C=C(C)/C=C/C1=C(C)C[C@H](O)CC1(C)C returns the recorded outcome of this test.
False

GET /call?item= OCC1O[C@H](O[C@H]2C(O)C(O)C(O)O[C@@H]2CO)C(O)C(O)C1O (stereo partly drawn) returns the recorded outcome of this test.
False

GET /call?item= CCC(C(=O)O)C1OC(C(C)C(O)C(C)C(=O)C(CC)C2OC3(C=CC(O)C4(CCC(C)(C5CCC(O)(CC)C(C)O5)O4)O3)C(C)CC2C)C(C)CC1C (stereo not drawn) returns the recorded outcome of this test.
True

GET /call?item= CCCCCCCCCCCC(=O)OCC(O)C1OCC(O)C1O (stereo not drawn) returns the recorded outcome of this test.
False

GET /call?item= CC1(C)SC2C(NC(=O)C(C(=O)O)c3ccccc3)C(=O)N2C1C(=O)O (stereo not drawn) returns the recorded outcome of this test.
False

GET /call?item= CCCCCOC(=O)Nc1nc(=O)n(C2O[C@H](C)[C@@H](O)[C@@H]2O)cc1F (stereo partly drawn) returns the recorded outcome of this test.
False

GET /call?item= C=C(CC[C@@H](C)[C@H]1CCC2[C@]1(C)CC[C@]13C[C@@]14CCC(OC(=O)/C=C/c1ccc(O)c(OC)c1)C(C)(C)[C@@H]4CC[C@@]23C)C(C)C (stereo partly drawn) returns the recorded outcome of this test.
False

GET /call?item= CC1CCC(C(C)C)C(O)C1 (stereo not drawn) returns the recorded outcome of this test.
False

###

- Tested on: CP250
- assay.explanation: qHTS profiling for inhibitors of Plasmodium falciparum proliferation (AID 504749); also: nearly all actives have a fitted effect of over 60% in size
- condition.set: P. falciparum in erythrocytes, SYBR Green DNA, 72 h; series mostly up to 28.7 µM
Records with an inconclusive call do not appear. Active and inactive are the calls of the source. Calls come from the whole dose curve; as a rule, active = well fitted inhibition curve with a large enough effect; inconclusive = small, poorly fitted or top-dose-only effect; inactive = flat fitted curve, though single readings scatter.
Respond only with the outcome that fits, drawn from y for active, n for inactive

1. O=C(O)Cc1sc(-c2ccc(Cl)cc2)nc1-c1ccccc1 : n
2. C[C@H](O)[C@@H]1C(=O)N2C(C(=O)O)=C(SCCN=CN)C[C@@H]12 : n
3. O=C1CC[C@H](C(=O)N[C@@H]2C[C@H]2c2ccccc2)N1 : n
4. CC(=O)O[C@]1(C(C)=O)CCC2C3CCC4=CC(=O)CCC4(C)C3(F)C(O)CC21C (stereo partly drawn) : n

GET /call?item= COC1CC2CCC(C)[C@](O)(O2)C(=O)C(=O)N2CCCCC2C(=O)OC(C(C)CC2CCC(O)C(OC)C2)CC(=O)C(C)/C=C(/C)C(O)C(OC)C(=O)C(C)CC(C)C=CC=C/C=C\1C (stereo partly drawn) returns the recorded outcome of this test.
y

GET /call?item= CC(O)C(N)C(=O)O (stereo not drawn) returns the recorded outcome of this test.
n

GET /call?item= CO/N=C(/C(=O)N[C@@H]1C(=O)N2C(C(=O)O)=C(C[n+]3ccc(N)n3CCO)CS[C@H]12)c1csc(N)n1 returns the recorded outcome of this test.
n

GET /call?item= C=C1NC(=O)c2cc(CN(C)c3ccc(C(=O)N[C@@H](CCC(=O)O)C(=O)O)s3)ccc2N1 returns the recorded outcome of this test.
n

GET /call?item= Cc1cnc(C(=O)O)cn1 returns the recorded outcome of this test.
n

GET /call?item= CC[C@H](C)[C@H]1O[C@]2(CC[C@@H]1C)C[C@@H]1C[C@@H](C/C=C(\C)[C@H](O[C@@H]3C[C@H](OC)[C@H](O[C@@H]4C[C@H](OC)[C@@H](O)[C@H](C)O4)[C@H](C)O3)[C@@H](C)/C=C/C=C3\CO[C@@H]4[C@H](O)C(C)=C[C@@H](C(=O)O1)[C@]34O)O2 returns the recorded outcome of this test.
y

GET /call?item= CCCCCCCCCCCCCCCC(=O)OC[C@H](O)[C@H]1OC[C@@H](O)[C@@H]1O returns the recorded outcome of this test.
n

###

- assay.explanation: Stat Signaling Pathway (AID 446);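 also: ME-180 cervical cancer cells given 40 pM IL-6 alongside compound; SIE-controlled beta-lactamase reporter measured as 460/530 nm FRET emission ratio; % is scaled to controls: 0 for no effect and ±100 for the full control effect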
- condition.set: ME-180 (cervical carcinoma) SIE beta-lactamase reporter, IL-6 stimulated, 5 h; at 17.2 µM (top of the series) unless noted
Inconclusive results are not listed. Activity calls are given as the source filed them. Calls follow the shape of the dose curve; as a rule, active = well fitted curve in either direction with a large enough effect (not every such curve was filed as active); inconclusive = small, poorly fitted or top-dose-only effect, or another doubt; inactive = flat fitted curve, though single readings scatter.
readout.type: activity, negative = inhibition

Below, each entry is followed by its recorded activity, negative = inhibition result.
1. Cc1cc(=O)oc(C)c1C(=O)Nc1ccc2nsnc2c1 : 8.13% (inactive)
2. COc1cccc(-c2nnc3sc(-c4ccccc4)nn23)c1 : -8.55% (inactive)
3. COC(=O)CSc1nc2sc3c(c2c(=O)n1C1CCCCC1)CCN(C)C3 : -5.31% (inactive)
4. COC(=O)c1sc2nc(N3CCCCC3)c3c(c2c1N)CC(C)(C)N(C)C3 : 9.93% (inactive)

With those in mind, consider the next compound.
Answer with the recorded activity, negative = inhibition for the compound listed here: O=C1c2ccccc2-c2onc3ccc(NCc4ccco4)c1c23
-1.03% (inactive)

###

- subject.of.test: Glucocorticoid receptor (Homo sapiens)
- assay.explanation: GR-GFP Redistribution (AID 450); also: potency is read from the fitted curve at half-maximal effect
- condition.set: U2OS GR-GFP nuclear translocation, laser cytometry, 2 h; series mostly up to 20.6 µM
Calls of active or inactive are those of the source.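 How the source made its calls: active means compounds whose dose series gives a full or clear partial fitted curve of increased nuclear translocation; inconclusive means weak partial curve or effect only at the top dose; inactive means no dose-dependent translocation response.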
Parameter: Potency. Scope: all listed entries.

Below, each entry is followed by its recorded Potency result.
1) CC(=O)C1=C(O)C(=O)N(c2cccc(C(=O)O)c2)C1c1ccc(F)cc1 (centres undefined) : > 20.6 µM (inactive)
2) C=CCOC(=O)C1=C(C)NC(SCC(=O)N(CC)CC)=C(C#N)C1c1ccco1 (centres undefined) : > 20.6 µM (inactive)
3) COc1ccc(C2C(C#N)=C(SC)NC3=C2C(=O)CC(C)(C)C3)cc1 (centres undefined) : > 20.6 µM (inactive)
4) CC(=Nc1ccc(C)c(C)c1)C1=C(O)CCC1=O : > 20.6 µM (inactive)
5) C[C@@H]1O[C@@H](OC[C@@H]2O[C@@H](Oc3c(-c4ccc(O)c(O)c4)oc4cc(O)cc(O)c4c3=O)[C@H](O)[C@H](O)[C@@H]2O)[C@H](O)[C@H](O)[C@@H]1O : > 46 µM (inactive)
6) O=C(/C=C\c1ccc(O)c(O)c1)OCCc1ccccc1 : > 46 µM (inactive)
7) CCN(CC)CCn1c(O)c(N=O)c2ccccc21 : > 20.6 µM (inactive)
8) COc1cccc(C2/C(=C(\O)c3ccc4c(c3)OCCO4)C(=O)C(=O)N2CCCN(C)C)c1OC (centres undefined) : > 20.6 µM (inactive)

Answer with the recorded Potency for the compound listed here: COc1ccccc1C1/C(=C(/O)c2ccc(OC(C)C)cc2)C(=O)C(=O)N1c1cc(C)on1 (centres undefined)
> 20.6 µM (inactive)
